Molecular target: human PTPN1 (1-435) (Homo sapiens (Human), UniProt P18031)
Sequence (P18031 whole entry): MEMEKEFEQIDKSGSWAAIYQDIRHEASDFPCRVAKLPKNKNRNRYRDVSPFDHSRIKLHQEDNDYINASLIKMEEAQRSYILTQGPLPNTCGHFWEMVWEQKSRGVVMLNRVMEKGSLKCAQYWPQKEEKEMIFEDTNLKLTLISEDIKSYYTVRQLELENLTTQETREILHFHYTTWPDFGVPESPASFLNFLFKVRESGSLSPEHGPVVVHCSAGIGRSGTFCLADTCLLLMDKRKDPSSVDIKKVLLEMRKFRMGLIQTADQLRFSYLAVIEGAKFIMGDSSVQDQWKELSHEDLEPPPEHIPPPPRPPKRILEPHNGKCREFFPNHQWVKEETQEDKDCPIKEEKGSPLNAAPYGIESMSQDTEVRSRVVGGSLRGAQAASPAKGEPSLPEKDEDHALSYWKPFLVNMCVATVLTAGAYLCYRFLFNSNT
pIC50: −log10 of the molar value.
Label T when pIC50 is at or above 6; anything below gets F.

These solved cases illustrate the format of a correct answer.
compound | class.assignment
O=C(NCCn1cnnc1)c1ccc2sc(C(F)(F)P(=O)(O)O)c(Br)c2c1 | F
NC(=O)c1cc(OCC2CC(C3CC3)C2)c2sc(C(F)(F)P(=O)(O)O)c(Br)c2c1 (centres unmarked) | T
O=P(O)(O)C(F)(F)c1sc2c(OCC3CC3(F)F)cc(-c3nc[nH]n3)cc2c1Br (centres unmarked) | T

Turning now to a further record.
State whether the measured pIC50 reaches 6, counting equality as reaching it, for CN1CCCC(NC(=O)c2ccc3sc(C(F)(F)P(=O)(O)O)c(Br)c3c2)C1 (centres unmarked)
F
